- assay_target: T1, human ferroportin (SLC40A1) fused in frame with GFP, stably expressed in HEK293 cells (human, UniProt Q9NP59 1-571)
- T1 sequence (looked up): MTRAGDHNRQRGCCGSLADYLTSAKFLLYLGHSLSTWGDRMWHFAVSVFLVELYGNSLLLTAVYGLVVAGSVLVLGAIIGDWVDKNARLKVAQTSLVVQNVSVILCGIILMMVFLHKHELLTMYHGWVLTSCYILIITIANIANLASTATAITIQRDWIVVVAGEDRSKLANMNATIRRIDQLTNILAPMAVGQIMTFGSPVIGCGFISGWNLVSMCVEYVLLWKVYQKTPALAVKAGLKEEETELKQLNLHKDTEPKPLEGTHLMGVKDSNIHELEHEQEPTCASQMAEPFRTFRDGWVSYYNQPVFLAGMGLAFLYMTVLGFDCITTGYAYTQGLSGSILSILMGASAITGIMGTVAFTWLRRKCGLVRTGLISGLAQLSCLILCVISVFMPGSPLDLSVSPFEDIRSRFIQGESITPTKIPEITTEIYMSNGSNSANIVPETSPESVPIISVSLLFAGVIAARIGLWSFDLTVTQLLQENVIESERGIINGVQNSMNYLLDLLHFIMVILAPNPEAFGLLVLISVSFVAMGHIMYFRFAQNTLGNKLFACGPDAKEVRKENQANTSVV
- procedure_summary: cell-based or functional assay
Non-standard residues stand in square brackets, D forms with d. Groups on a side chain read outwards from the residue. *: point of attachment. C18 diacid = O=C(O)CCCCCCCCCCCCCCCCC(=O)*; Dip = N[C@H](C(=O)O)C(c1ccccc1)c1ccccc1; Palmitoyl = CCCCCCCCCCCCCCCC(=O)*; β3hF = N[C@H](CC(=O)O)Cc1ccccc1; Isovaleryl = CC(C)CC(=O)*; AEEA = NCCOCCOCC(=O)O; Ahx = NCCCCCC(=O)O
quantity: FPN EC50 (nM)
Write it as a number; the unit nM goes unstated.

{"columns": ["binder", "number"],
 "data": [
  ["Isovaleryl-RTH[Dip]PAIK([AEEA-AEEA-Ahx-C18 diacid])[β3hF][dK]-NH2 (SMILES CC[C@H](C)[C@H](NC(=O)[C@H](C)NC(=O)[C@@H]1CCCN1C(=O)[C@@H](NC(=O)[C@H](Cc1c[nH]cn1)NC(=O)[C@@H](NC(=O)[C@H](CCCNC(=N)N)NC(=O)CC(C)C)[C@@H](C)O)C(c1ccccc1)c1ccccc1)C(=O)N[C@@H](CCCCNC(=O)COCCOCCNC(=O)COCCOCCNC(=O)CCCCCNC(=O)CCCCCCCCCCCCCCCCC(=O)O)C(=O)N[C@H](CC(=O)N[C@H](CCCCN)C(N)=O)Cc1ccccc1) [Isovaleric Acid-R-T-H-[Dpa]-P-A-I-[Lys(1PEG2_1PEG2_Ahx_C18_Diacid)]-[bhPhe]-[(D)Lys]-NH2]", 48.5]
]}

Now look at this entry.
Q) Could you tell me which FPN EC50 is on file for Isovaleryl-EAH[Dip]PAI[dK][β3hF]K([Ahx-Palmitoyl])[dK]A-NH2 (SMILES CCCCCCCCCCCCCCCC(=O)NCCCCCC(=O)NCCCC[C@H](NC(=O)C[C@H](Cc1ccccc1)NC(=O)[C@@H](CCCCN)NC(=O)[C@@H](NC(=O)[C@H](C)NC(=O)[C@@H]1CCCN1C(=O)[C@@H](NC(=O)[C@H](Cc1c[nH]cn1)NC(=O)[C@H](C)NC(=O)[C@H](CCC(=O)O)NC(=O)CC(C)C)C(c1ccccc1)c1ccccc1)[C@@H](C)CC)C(=O)N[C@H](CCCCN)C(=O)N[C@@H](C)C(N)=O) [Isovaleric Acid-E-A-H-[Dpa]-P-A-I-[(D)Lys]-[bhPhe]-[Lys(Ahx_Palm)]-[(D)Lys]-A-NH2] ?
A) 492
